- Tested on: Plasmodium falciparum
- RUN_DESCRIPTION: GSK_TCMDC: Inhibition of Plasmodium falciparum 3D7 in whole erythrocytes, using parasite LDH activity as an index of growth.
- Assay type: functional, organism-based
- ASSAY_CONDITIONS: Plasmodium falciparum, 3D7
molecules and their reported XC50
API: value field is a number in nM; no unit string.

Ask: Bench note: what XC50 did `CCOc1cc(C)ccc1C1CCN(CCCCNC(=O)c2coc(-c3ccc(Cl)cc3)c2)CC1` show?
Reply: 914

Ask: // same read-out, input: `FC(F)(F)c1ccc(N2CCCN(Cc3cccc(-c4ccccc4CNCc4ccc5c(c4)OCO5)c3)CC2)nc1`
Reply: 1190

====

- Test system: Plasmodium falciparum
- RUN_DESCRIPTION: GSK_TCMDC: Inhibition of Plasmodium falciparum 3D7 in whole erythrocytes, using parasite LDH activity as an index of growth.
- Format: functional, organism-based
- ASSAY_CONDITIONS: Plasmodium falciparum, 3D7
VALUE_KIND: XC50 (nM)
Kindly answer with a numeric value in nM, unit omitted.

Below: 2 molecules and their reported XC50.
[[record]]
molecule = "Cc1cc2ccc(-c3cccc(CN)c3)cc2nc1N"
value_observed = 758

[[record]]
molecule = "CCCCNC(=N)Nc1ccc(OCCCOc2ccc(NC(=N)NCCCC)cc2)cc1"
value_observed = 164


Ask: // lookup XC50 for O=c1cc(NCCCNC(CNCCc2ccccc2)c2cc(Br)cc(Br)c2)[nH]c2ccccc12 (centres undefined)
Reply: 864

Ask: // next record `CCc1c(CCNCCCCCCNCCc2ccc3c(c2C)OCO3)ccc2c1OCO2`
Reply: 608

Ask: Consider next the molecule `CN(C(=O)C1(c2ccc(Cl)cc2)CC1)C1CCN(CCCCCNC(=O)/C=C/c2ccc(Cl)c(Cl)c2)CC1` in the same way.
Reply: 769

Ask: What do you get for `CC(C)CNC(=O)c1ccnc(-c2ccc(CNC3Cc4ccccc4C3)cc2)c1` ?
Reply: 790

Ask: Another: `CCCNCc1ccc(-c2ccc(CN(CCOC)C(=O)CCCOCc3ccccc3)cc2)nc1`
Reply: 1160

Ask: Continue with `O=C(Nc1ccc(Cl)cc1)c1ccc(CN2CCCN(Cc3cccc(O)c3)CC2)cc1`
Reply: 388

Ask: What would you report for `CC(C)c1cccc(C(C)C)c1NC(=O)NNC(=O)c1ccc(CCN2CCC(c3nc(COCC(F)(F)F)c(-c4ccc(F)cc4)o3)CC2)cc1` ?
Reply: 1090

====

Listing of entries alongside the reported XC50.
- Tested on: Plasmodium falciparum
- RUN_DESCRIPTION: GSK_TCMDC: Inhibition of Plasmodium falciparum 3D7 in whole erythrocytes, using parasite LDH activity as an index of growth.
- Type: functional, organism-based
- ASSAY_CONDITIONS: Plasmodium falciparum, 3D7
Dear colleague, please return just the value in nM, with no unit written.

[[record]]
compound = "COc1c(OC)c(OC)c2ccccc2c1CCNCCCCNCCc1c(OC)c(OC)c(OC)c2ccccc12"
output_unit = "nM"
value_observed = 612


Ask: Sample `Cc1cc(C(=O)OCC(N)=O)c(C)n1-c1ccc(F)cc1` — what was its XC50?
Reply: 331

Ask: Moving on to the next compound: `COc1ccc(N2CCN(CCc3ccc(NC(=O)c4ccc([N+](=O)[O-])cc4)cc3)CC2)c(OC)c1`
Reply: 1170

Ask: // next record CC(=O)c1cccc(NC(=O)C2c3ccccc3C(=O)N(CC(C)C)C2c2cccs2)c1 (stereo not drawn)
Reply: 590

Ask: Also, CC(C)C1CCc2nc(N)nc(N)c2C1 (stereo not drawn) please.
Reply: 139
